Test system: rats
ASSAY METHOD TEXT: Salivation after transdermal iontophoretic co-delivery of agonist and antagonist from one patch
Format: in vivo, rat
EXPERIMENTAL CONTEXT: anesthetized rats, device with 1 mg Compound 3 plus 0.01 mg antagonist
READOUT LABEL: Reduction of salivation caused by transdermal iontophoretic delivery of Compound 3

> print(dat)
                                   compound           result
1  CC(C)[N+](C)(CCOC(=O)C1c2ccccc2Oc2ccccc21)C(C)C  greatly reduced
2  C[N+]1(C)CCC(OC(=O)C(O)(c2ccccc2)C2CCCC2)C1 (centres unmarked) [glycopyrrolate]  greatly reduced
3  C[N+]1(C)[C@@H]2C[C@@H](OC(=O)[C@H](CO)c3ccccc3)C[C@H]1[C@@H]1O[C@@H]12  greatly reduced
